assay: Cytotoxicity against human Hep3B cells after 48 hrs by alamar blue assay; format: functional, cell-based, Hep 3B2
RESULT_TYPE: pIC50
Please report pIC50 as the negative decimal logarithm of the molar concentration, giving only the number.

Use the examples below as a reference point.
CHEM_SMILES: COc1cccc(N2C(=O)C(SCCO)=C(SCCO)C2=O)c1
pIC50: 5.05

CHEM_SMILES: O=C1C(SCCO)=C(SCCO)C(=O)N1c1ccccc1F
pIC50: 5.05

CHEM_SMILES: COc1cc(OC)cc(N2C(=O)C(SCCO)=C(SCCO)C2=O)c1
pIC50: 5.05

CHEM_SMILES: Cc1cc(Cl)ccc1N1C(=O)C(SCCO)=C(SCCO)C1=O
pIC50: 5.10

CHEM_SMILES: Cc1cccc(N2C(=O)C(SCCO)=C(SCCO)C2=O)c1
pIC50: 5.15

CHEM_SMILES: CCOc1ccc(N2C(=O)C(SCCO)=C(SCCO)C2=O)cc1
pIC50: 5.22

CHEM_SMILES: O=C1C(SCCO)=C(SCCO)C(=O)N1c1ccc2ccccc2c1
pIC50: 5.46

CHEM_SMILES: CC(=O)c1ccc(N2C(=O)C(SCCO)=C(SCCO)C2=O)cc1
pIC50: 5.00

Switching to the query record.
I am curious: what pIC50 value has been reported for `O=C1C(SCCO)=C(SCCO)C(=O)N1c1cccc2ccccc12` ? 5.40

###

assay: Cytotoxicity against human Hep3B cells after 48 hrs by alamar blue assay; format: functional, cell-based, Hep 3B2
This section presents compounds with their documented pIC50 values.
Please keep in mind that pIC50 is minus log10 of the molar concentration; only the number is needed.

CHEM_SMILES: O=C1C(SCCO)=C(SCCO)C(=O)N1CCc1cccc(Cl)c1
MEASURED_VALUE: 6.00

Requested field: pIC50. Item: `O=C1C(SCCO)=C(SCCO)C(=O)N1Cc1ccccc1` 5.30

Would you mind telling me what pIC50 value was observed for `Cc1ccccc1-c1ccc(N2C(=O)C(SCCO)=C(SCCO)C2=O)cc1C` ? 5.00

I have this compound here, `CCCCOc1ccc(N2C(=O)C(SCCO)=C(SCCO)C2=O)cc1` , and I need its recorded pIC50. 5.30

Quick one: pIC50 of `O=C1C(SCCO)=C(SCCO)C(=O)N1CCc1ccccc1` ? 5.70

What value of pIC50 has been reported for the following compound? `O=C1C(SCCO)=C(SCCO)C(=O)N1c1ccc(-c2ccc([N+](=O)[O-])cc2)cc1` 5.40

Name the recorded pIC50 for `O=C1C(SCCO)=C(SCCO)C(=O)N1c1ccc(-c2ccccc2)cc1` . 6.15

Quick check: pIC50 of `O=C1C(SCCO)=C(SCCO)C(=O)N1c1ccc(Cl)cc1` ? 5.15

###

experiment: Cytotoxicity against human Hep3B cells after 48 hrs by alamar blue assay; assay type: functional, cell-based, Hep 3B2
RESULT_TYPE: pIC50
pIC50 field: float, defined as -log10 of concentration (mol/L).

// solved cases for pIC50 follow
CHEM_SMILES: O=C1C(SCCO)=C(SCCO)C(=O)N1c1ccccc1
MEASURED_VALUE: 4.15
--
CHEM_SMILES: O=C1C(SCCO)=C(SCCO)C(=O)N1c1ccc2cc3ccccc3cc2c1
MEASURED_VALUE: 5.74
--
CHEM_SMILES: O=C1C(SCCO)=C(SCCO)C(=O)N1Cc1cccc(Cl)c1
MEASURED_VALUE: 5.60
--
CHEM_SMILES: COc1ccc(-c2ccc(N3C(=O)C(SCCO)=C(SCCO)C3=O)cc2)cc1
MEASURED_VALUE: 5.52
--
CHEM_SMILES: O=C1C(SCCO)=C(SCCO)C(=O)N1c1ccccc1I
MEASURED_VALUE: 5.05

Query (compound): `COc1ccc(N2C(=O)C(SCCO)=C(SCCO)C2=O)cc1` ; field requested: pIC50 5.22

pIC50 for `CN(C)c1ccc(N2C(=O)C(SCCO)=C(SCCO)C2=O)cc1` ? 5.05

Which pIC50 value belongs to `O=C1C(SCCO)=C(SCCO)C(=O)N1c1ccc(F)cc1` ? 5.05

Given `O=C1C(SCCO)=C(SCCO)C(=O)N1c1ccc(OC(F)(F)F)cc1` , state its recorded pIC50. 5.40

// returns reported pIC50 for input `N#Cc1ccc(N2C(=O)C(SCCO)=C(SCCO)C2=O)cc1` 5.05

Every entry's value here was drawn from ChEMBL document CHEMBL1165946.
